Biological target: Rho-associated protein kinase 2 (Homo sapiens)
Sequence (O75116 whole entry): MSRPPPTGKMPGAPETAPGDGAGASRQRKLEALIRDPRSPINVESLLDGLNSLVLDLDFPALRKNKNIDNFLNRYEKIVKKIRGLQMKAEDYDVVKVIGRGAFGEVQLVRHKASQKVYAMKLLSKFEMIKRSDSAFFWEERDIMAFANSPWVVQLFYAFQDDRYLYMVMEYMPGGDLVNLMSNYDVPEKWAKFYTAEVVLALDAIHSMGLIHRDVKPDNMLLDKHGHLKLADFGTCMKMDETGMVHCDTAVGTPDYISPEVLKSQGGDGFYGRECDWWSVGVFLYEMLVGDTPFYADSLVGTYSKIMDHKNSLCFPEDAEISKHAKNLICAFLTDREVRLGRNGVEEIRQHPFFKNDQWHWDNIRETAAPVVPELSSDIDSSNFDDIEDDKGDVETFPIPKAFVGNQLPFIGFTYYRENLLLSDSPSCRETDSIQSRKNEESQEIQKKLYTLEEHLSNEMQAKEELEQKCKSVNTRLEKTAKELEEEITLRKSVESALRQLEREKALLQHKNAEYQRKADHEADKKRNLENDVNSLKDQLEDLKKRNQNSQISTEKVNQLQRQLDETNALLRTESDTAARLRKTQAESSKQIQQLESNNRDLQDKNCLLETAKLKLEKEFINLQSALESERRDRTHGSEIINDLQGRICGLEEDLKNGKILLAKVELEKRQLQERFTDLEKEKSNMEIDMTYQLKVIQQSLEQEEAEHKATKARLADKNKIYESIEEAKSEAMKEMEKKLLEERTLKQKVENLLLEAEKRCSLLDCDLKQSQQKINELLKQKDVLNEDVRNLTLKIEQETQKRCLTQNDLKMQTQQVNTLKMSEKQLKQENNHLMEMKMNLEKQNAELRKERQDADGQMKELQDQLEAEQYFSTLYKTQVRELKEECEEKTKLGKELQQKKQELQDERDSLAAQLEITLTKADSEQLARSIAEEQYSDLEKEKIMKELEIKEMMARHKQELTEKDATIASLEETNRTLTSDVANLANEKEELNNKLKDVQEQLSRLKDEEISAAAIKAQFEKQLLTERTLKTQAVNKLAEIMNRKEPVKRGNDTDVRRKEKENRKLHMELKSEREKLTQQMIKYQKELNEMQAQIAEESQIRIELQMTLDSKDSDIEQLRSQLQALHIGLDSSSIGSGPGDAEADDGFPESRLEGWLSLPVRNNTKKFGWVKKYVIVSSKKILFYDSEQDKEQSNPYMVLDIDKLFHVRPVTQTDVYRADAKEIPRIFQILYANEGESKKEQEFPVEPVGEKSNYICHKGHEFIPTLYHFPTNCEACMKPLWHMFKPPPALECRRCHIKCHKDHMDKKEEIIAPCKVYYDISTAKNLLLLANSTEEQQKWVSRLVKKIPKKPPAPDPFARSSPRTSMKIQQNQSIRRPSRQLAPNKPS
Assay: Inhibition of human recombinant ROCK2 by ELISA
Metric Name: IC50

query: Data request, read-out IC50, for O=C(Nc1ccc(-c2ccncc2)cc1)N[C@H](CO)c1ccccc1
result: 0.052 µM

###

Biological target: Ras-related C3 botulinum toxin substrate 1 (Homo sapiens, UniProt P63000)
Test: Inhibition of Rac1 in human HeLa cells by Flow cytometric G-trap effector binding assay
Metric Name: EC50 (nM)
Numeric only. Scale: nM

query: Data request, read-out EC50, for O=C(c1ccccc1)c1ccc2n1CC[C@@H]2C(=O)O
result: 574

###

Test: Inhibition of human recombinant farnesyltransferase using [3H]geranylgeranyldiphosphate and Ha-Ras-CVLL as substrate assessed as inhibition of farnesylation by immunoblot analysis
Metric Name: IC50 (nM)
Numeric only. Scale: nM

query: Data request, read-out IC50, for NC(=O)N1CCC(CC(=O)N2CCC([C@H]3c4ncc(Br)cc4CCc4cc(Cl)cc(Br)c43)CC2)CC1
result: 1.9

###

Target: Geranylgeranyl transferase type-2 (Rattus norvegicus, UniProt Q08602+Q08603)
Sequence (Q08603 whole entry): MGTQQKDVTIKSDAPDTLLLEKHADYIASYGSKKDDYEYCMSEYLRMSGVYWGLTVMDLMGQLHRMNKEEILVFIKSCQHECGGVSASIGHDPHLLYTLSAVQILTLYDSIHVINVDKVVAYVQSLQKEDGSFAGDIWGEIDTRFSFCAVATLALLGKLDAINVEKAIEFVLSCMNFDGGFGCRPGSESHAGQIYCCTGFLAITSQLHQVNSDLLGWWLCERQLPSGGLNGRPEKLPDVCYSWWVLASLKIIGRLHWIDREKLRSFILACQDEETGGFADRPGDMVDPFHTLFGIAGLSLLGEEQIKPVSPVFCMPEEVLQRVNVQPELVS
Sequence (Q08602 whole entry): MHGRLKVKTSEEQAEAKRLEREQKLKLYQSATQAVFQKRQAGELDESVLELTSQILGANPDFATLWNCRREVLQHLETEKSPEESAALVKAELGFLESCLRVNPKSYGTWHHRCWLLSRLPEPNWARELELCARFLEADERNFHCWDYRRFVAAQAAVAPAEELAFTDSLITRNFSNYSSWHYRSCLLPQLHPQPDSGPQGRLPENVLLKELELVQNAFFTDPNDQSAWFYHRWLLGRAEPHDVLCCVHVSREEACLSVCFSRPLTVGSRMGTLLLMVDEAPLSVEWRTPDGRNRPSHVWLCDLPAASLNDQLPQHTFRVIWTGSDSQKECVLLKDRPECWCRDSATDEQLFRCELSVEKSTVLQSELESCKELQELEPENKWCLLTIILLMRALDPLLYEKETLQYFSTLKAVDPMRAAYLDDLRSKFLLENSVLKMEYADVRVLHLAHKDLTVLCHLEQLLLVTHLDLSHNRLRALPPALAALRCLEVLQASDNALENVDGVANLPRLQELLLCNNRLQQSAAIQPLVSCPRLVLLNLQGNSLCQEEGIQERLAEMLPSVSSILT
Test: Inhibition of rat Geranylgeranyl transferase type-2 assessed as inhibition of Rab geranylgeranylation by fluorometric Rab prenylation assay
Metric Name: pIC50
Notebook: values listed as pIC50 are -log10 of the concentration (mol/L).

query: Data request, read-out pIC50, for COc1cc(C(=O)O)c2c(c1C)OC(=O)c1ccc(O)c(C=O)c1O2
result: 5.85

###

Assay: Inhibition of human recombinant farnesyltransferase using dansyl-labelled K-Ras C-terminal peptide (K)6SK(Dans)TKCVIM (Dans -N-dansyl) as a substrate assessed as inhibition constant measured for 5 mins by fluorescent spectroscopic assay
Metric Name: Ki (nM)
Numeric only. Scale: nM

query: Data request, read-out Ki, for CSCC[C@H](NC(=O)c1ccc(NC[C@H](CS)NC(=O)CCCCCNC(=O)c2cc(OCCCNC(=N)N)c(OCCCNC(=N)N)c(OCCCNC(=N)N)c2)cc1-c1ccccc1)C(=O)O
result: 0.6

###

Target: UniProt:P60953
Sequence (P60953 whole entry): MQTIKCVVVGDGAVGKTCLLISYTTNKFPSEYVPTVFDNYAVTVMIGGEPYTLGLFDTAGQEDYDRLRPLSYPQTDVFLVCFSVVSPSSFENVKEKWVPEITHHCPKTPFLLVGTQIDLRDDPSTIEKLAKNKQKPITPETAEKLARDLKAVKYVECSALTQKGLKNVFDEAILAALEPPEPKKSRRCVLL
Assay: Inhibition of Cdc42 in human HeLa cells by Flow cytometric G-trap effector binding assay
Metric Name: EC50 (µM)
Numeric only. Scale: µM

query: GET /values?readout=EC50&system=UniProt:P60953&item= O=C(c1ccccc1)c1ccc2n1CC[C@@H]2C(=O)O
result: 1.07

###

Assay: Inhibition of Protein farnesyltransferase (unknown origin)
Parameters: species or system Homo sapiens
The reader will find reported IC50 values listed item by item below.
Numeric only. Scale: nM

| Compound | IC50, nM |
| --- | --- |
| Cc1nc[nH]c1CN1CCN(C(=O)N[C@@H](CC(C)C)C(=O)O)[C@@H](Cc2ccccc2)C1=O | 53000 |
| CCCC[C@@H](C)/C=C(C)/C=C(\C)C(=O)NC1=C[C@@](O)(/C=C/C=C/C=C/C(=O)NC2=C(O)CCC2=O)[C@@H]2O[C@@H]2C1=O | 30 |

Continue with the compound presented below.
query: Data request, read-out IC50, for COC(=O)[C@H](CCSC)NC(=O)c1ccc(NC[C@@H](N)CS)cc1-c1ccccc1
result: 50

###

Test: Inhibition of human recombinant Geranylgeranyl transferase-1 using dansyl-labelled K-Ras C-terminal peptide (K)6SK(Dans)TKCVIM (Dans -N-dansyl) as a substrate assessed as inhibition constant measured after 5 mins by fluorescent spectroscopic assay
Metric Name: pKi
Notebook: values listed as pKi are -log10 of the concentration (mol/L).

query: Data request, read-out pKi, for CSCC[C@H](NC(=O)c1ccc(NC[C@H](CS)NC(=O)CCCCCNC(=O)c2cc(OCCCNC(=N)N)c(OCCCNC(=N)N)c(OCCCNC(=N)N)c2)cc1-c1ccccc1)C(=O)O
result: 6.15

###

Test: Inhibition of farnesyltransferase in human Coronary artery smooth muscle cell line using sepharose beads as substrate assessed as inhibition of farnesylation incubated for 30 mins
Metric Name: pIC50
Notebook: values listed as pIC50 are -log10 of the concentration (mol/L).

query: Data request, read-out pIC50, for CC(C)=CCC/C(C)=C/CC/C(C)=C/CP(=O)(O)OP(=O)(O)O
result: 6.47

###

Target: Geranylgeranyl pyrophosphate synthase (Homo sapiens, UniProt O95749)
Sequence (O95749 whole entry): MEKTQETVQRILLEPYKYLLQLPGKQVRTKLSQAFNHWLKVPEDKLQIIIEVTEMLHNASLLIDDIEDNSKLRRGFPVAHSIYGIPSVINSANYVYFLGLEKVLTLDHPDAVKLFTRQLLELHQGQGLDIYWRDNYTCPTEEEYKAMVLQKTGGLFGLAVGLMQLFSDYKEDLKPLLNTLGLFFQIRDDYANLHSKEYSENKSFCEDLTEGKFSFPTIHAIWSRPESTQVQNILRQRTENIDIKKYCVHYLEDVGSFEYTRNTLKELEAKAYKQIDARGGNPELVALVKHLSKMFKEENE
Test: Inhibition of GGPP synthase (unknown origin)
Metric Name: IC50 (nM)
Numeric only. Scale: nM

query: Data request, read-out IC50, for CC(C)=CCC/C(C)=C/COC(C/C=C(\C)CCC=C(C)C)(P(=O)(O)O)P(=O)(O)O
result: 82

###

Target: Geranylgeranyl pyrophosphate synthase (Homo sapiens, UniProt O95749)
Experiment: Inhibition of recombinant human GST-tagged GGPP synthase expressed in Escherichia coli BL21 (DE3) preincubated for 10 mins in presence compound followed by incubation for 60 mins by liquid scintillation counting analysis
Metric Name: IC50 (nM)
Numeric only. Scale: nM

query: Data request, read-out IC50, for CC(C)=CCC/C(C)=C/CC(/C=C(\C)CCC=C(C)C)(P(=O)(O)O)P(=O)(O)O
result: 200
